Could you please report measured TNF-α serum level for the items listed next?
system: human whole blood; assay: Whole blood cell model: anti-CD3 stimulation, cytokine measurement; assay type: cell-based; details: + Anti-CD3, + CytoSorb, test 3
Entry rule: numbers only, all in pg/mL.

Given item COc1c(C)c2c(c(O)c1C/C=C(\C)CCC(=O)O)C(=O)OC2 [MPA, mycophenolic acid] , the value recorded as its TNF-α serum level is 55

Given item Sc1ncnc2nc[nH]c12 [6-MP, 6-mercaptopurine] , the value recorded as its TNF-α serum level is 41

Given item C=CC[C@@H]1/C=C(\C)C[C@H](C)C[C@H](OC)[C@H]2O[C@@](O)(C(=O)C(=O)N3CCCC[C@H]3C(=O)O[C@H](/C(C)=C/[C@@H]3CC[C@@H](O)[C@H](OC)C3)[C@H](C)[C@@H](O)CC1=O)[C@H](C)C[C@@H]2OC [TAC, tacrolimus] , the value recorded as its TNF-α serum level is 85

Given item C[C@H]1C[C@@H]2[C@H]([C@@H](O)C[C@@]3(C)[C@H]2CC[C@]3(O)C(=O)CO)[C@@]2(C)C=CC(=O)C=C12 [MPR, methylprednisolone] , the value recorded as its TNF-α serum level is 41

====

tested on: human whole blood; assay: Whole blood cell model: LPS stimulation, cytokine measurement; type: cell-based; conditions: + CytoSorb, test 1
Reported Endpoint: IL-8 serum level (pg/mL)
Entry rule: numbers only, all in pg/mL.

Given item COc1c(C)c2c(c(O)c1C/C=C(\C)CCC(=O)O)C(=O)OC2 , the value recorded as its IL-8 serum level is 4068

Given item C=CC[C@@H]1/C=C(\C)C[C@H](C)C[C@H](OC)[C@H]2O[C@@](O)(C(=O)C(=O)N3CCCC[C@H]3C(=O)O[C@H](/C(C)=C/[C@@H]3CC[C@@H](O)[C@H](OC)C3)[C@H](C)[C@@H](O)CC1=O)[C@H](C)C[C@@H]2OC , the value recorded as its IL-8 serum level is 7756

Given item Sc1ncnc2nc[nH]c12 , the value recorded as its IL-8 serum level is 6337

Given item C[C@H]1C[C@@H]2[C@H]([C@@H](O)C[C@@]3(C)[C@H]2CC[C@]3(O)C(=O)CO)[C@@]2(C)C=CC(=O)C=C12 , the value recorded as its IL-8 serum level is 6337

====

Could you please report measured TNF-α serum level for the items listed next?
system: human whole blood; test: Whole blood cell model: anti-CD3 stimulation, cytokine measurement; type: cell-based; conditions: + Anti-CD3, + CytoSorb, test 1
Entry rule: numbers only, all in pg/mL.

Given item C=CC[C@@H]1/C=C(\C)C[C@H](C)C[C@H](OC)[C@H]2O[C@@](O)(C(=O)C(=O)N3CCCC[C@H]3C(=O)O[C@H](/C(C)=C/[C@@H]3CC[C@@H](O)[C@H](OC)C3)[C@H](C)[C@@H](O)CC1=O)[C@H](C)C[C@@H]2OC [TAC, tacrolimus] , the value recorded as its TNF-α serum level is 38

Given item COc1c(C)c2c(c(O)c1C/C=C(\C)CCC(=O)O)C(=O)OC2 [MPA, mycophenolic acid] , the value recorded as its TNF-α serum level is 107

Given item C[C@H]1C[C@@H]2[C@H]([C@@H](O)C[C@@]3(C)[C@H]2CC[C@]3(O)C(=O)CO)[C@@]2(C)C=CC(=O)C=C12 [MPR, methylprednisolone] , the value recorded as its TNF-α serum level is 43

// data source = paper PMC12655457
